Where do the numbers come from? From paper PMC11191095.

Tested on: C. albicans NCPF 3281
Test: microbe, parasite or virus in culture
Format: cell-based
Conditions: Candida albicans, NCPF3281, read-out: Modal MIC (antibiogram)
Assay Metric: MIC (µg/mL)

compound="CC[C@H](C)C[C@H](C)CCCCCCCCC(=O)N[C@H]1C[C@@H](O)[C@@H](NCCN)NC(=O)[C@@H]2[C@@H](O)CCN2C(=O)[C@H]([C@H](O)CCN)NC(=O)[C@H]([C@H](O)[C@@H](O)c2ccc(O)cc2)NC(=O)[C@@H]2C[C@@H](O)CN2C(=O)[C@H]([C@@H](C)O)NC1=O [Caspofungin, reference compound]" qualifier_operator=≤ data_value=0.007
compound="C[C@@H]1[C@H](O)[C@@H](C)/C=C/C=C/C=C/C=C/C=C/C=C/C=C/[C@H](O[C@@H]2O[C@H](C)[C@@H](O)[C@H](N)[C@@H]2O)C[C@@H]2O[C@](O)(C[C@@H](O)C[C@@H](O)[C@H](O)CC[C@@H](O)C[C@@H](O)CC(=O)O[C@H]1C)C[C@H](O)[C@H]2C(=O)O [Amphotericin B, reference compound]" qualifier_operator== data_value=0.015

====

System: C. glabrata NCPF 8018
Assay: microbe, parasite or virus in culture
Type: cell-based
Conditions: C. glabrata NCPF 8018; shown in µM
Where a SMILES comes first, the peptide text is derived from it.
In this section, each of the compounds is paired with its reported Modal MIC90.
Assay Metric: Modal MIC90

compound="CC[C@H](C)[C@H](NC(=O)[C@H](CCCCN)NC(=O)[C@H](CC(C)C)NC(=O)[C@H](C)NC(=O)[C@H](C)NC(=O)[C@H](CCCCN)NC(=O)[C@H](CC(C)C)NC(=O)[C@H](C)NC(=O)[C@@H](N)CCCCN)C(=O)NCC(N)=O [CPF-P3-10a] (H-KALKAALKIG-NH2)" assay_metric="Modal MIC90" data_value="> 122 µM"
compound="CC[C@H](C)[C@H](NC(=O)[C@H](C)NC(=O)CNC(=O)[C@H](C)NC(=O)[C@H](CCCCN)NC(=O)[C@H](CO)NC(=O)[C@H](C)NC(=O)[C@H](CCSC)NC(=O)CN)C(=O)N[C@@H](C)C(=O)NCC(=O)N[C@@H](CCCCN)C(=O)N[C@H](C(=O)N[C@@H](C)C(=O)N[C@@H](CCCCN)C(=O)N[C@H](C(=O)N[C@@H](C)C(=O)N[C@@H](CC(C)C)C(=O)N[C@@H](CCCCN)C(=O)N[C@@H](C)C(=O)N[C@@H](CC(C)C)C(N)=O)C(C)C)[C@@H](C)CC [DRAMP02272a] (H-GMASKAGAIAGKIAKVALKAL-NH2)" assay_metric="Modal MIC90" data_value="> 64 µM"

====

System: C. albicans NCPF 3281
Assay: microbe, parasite or virus in culture
Assay type: cell-based
Details: NCPF 3281, 20 h
Where a SMILES comes first, the peptide text is derived from it.
Assay Metric: Modal MIC90 (µM)

compound="CC(C)[C@H](NC(=O)CNC(=O)[C@H](CCCNC(=N)N)NC(=O)[C@@H](N)CCCNC(=N)N)C(=O)N[C@@H](CS)C(=O)N[C@@H](CCCNC(=N)N)C(=O)N[C@@H](CS)C(=O)N[C@H](C(=O)N[C@@H](CS)C(=O)N[C@@H](CCCNC(=N)N)C(=O)N[C@@H](CCCNC(=N)N)C(N)=O)C(C)C [BTD11a] (H-RRGVCRCVCRR-NH2; N-terminus assumed)" data_value=47
